Reference source: PubChem BioAssay (NCI)

What growth inhibition was measured for each of the following?
experiment: NCI Yeast Anticancer Drug Screen. Data for the bub3 strain (AID 167); conditions: S. cerevisiae bub3 mutant strain, at 1.2 µM, hits give high values
Compounds without any hit were thinned out: in the full panel of roughly 79,000, 15% have a hit. Activity calls are given as the source filed them. No stated cut-off is given here; in the data, active means growth inhibition above about 70%; inactive means the rest.

CC(C)[Si]1(C(C)C)OCC2OC(n3cnc4c(N)ncnc43)C(N)C2O[Si](C(C)C)(C(C)C)O1 (stereo not given)
-3% (inactive)

Give measured growth inhibition for every item shown.
1. O=[N+]([O-])[O][Sn]([O][Sn]([O][N+](=O)[O-])([c]1ccccc1)[c]1ccccc1)([c]1ccccc1)[c]1ccccc1
2. CCCCCCCCCCCCCCCCCCNc1nc(=O)n(C2CC(OP(=O)(O)OCC3OC(n4cc(F)c(=O)[nH]c4=O)CC3O)C(CO)O2)cc1F (stereo not given)
3. O=C1C(/C=C/c2ccc(Cl)cc2)=NNC2N1N=C1NC(=O)C3(NN12)c1ccccc1-c1ccccc13 (stereo not given)
4. O=C(NOC(=O)c1ccc([N+](=O)[O-])cc1)c1ccc(Cl)cc1
5. Cc1cc(O)c(C(C)C)cc1SC#N
6. Fc1ccc(Nc2ccc3ccccc3c2)cc1
7. O=C(NCCCCN(CCCNC(=O)C(F)(F)F)Cc1ccccc1)C(F)(F)F

Reply:
1: 8% (inactive); 2: 4% (inactive); 3: -2% (inactive); 4: -19% (inactive); 5: 3% (inactive); 6: 0% (inactive); 7: 11% (inactive)

Return reported growth inhibition values for all items listed beneath this line.
1. CCCCCCCN1C(=O)c2ccccc2C1=O
2. CCC(OC(C)=O)C1CC(C(C)C)CCC1C (stereo not given)

Reply:
1. 3% (inactive)
2. -2% (inactive)
